experiment-description: Anti-inflammatory activity in human PBMC cells assessed as inhibition of LPS-induced TNF-alpha production
Type: functional, cell-based
quantity-name: pIC50
# log scale: pIC50 equals minus log10 of the concentration in mol/L

Answered cases to consult:
>>> readout_number("Cc1cc(F)ccc1Nc1ccc(C(=O)c2ccccc2C)c(Cl)c1")
8.40
>>> readout_number("Cc1ccccc1C(=O)c1ccc(Nc2ccc(Br)cc2N)cc1Cl")
8.40
>>> readout_number("Cc1ccccc1C(=O)c1ccc(Nc2ccccc2N)cc1Cl")
8.40

Qu. Recorded pIC50 of Nc1ccccc1Nc1ccc(C(=O)c2ccccc2)cc1 , please.
Ans. 6.80

----------
Reported values of IC50 for individual entries
Tested on: Human immunodeficiency virus 1
experiment-description: Antiviral activity against HIV-1 V106I mutant
Type: functional, organism-based

Qu. GET /values?readout=IC50&item= Cc1cc(S(N)(=O)=O)ccc1NC(=O)COc1ccc(Cl)cc1C(=O)c1cc(F)cc(C(F)(F)F)c1
Ans. < 10 nM

Qu. Request the reported IC50 associated with Cc1cc(OCCCS(N)(=O)=O)ccc1NC(=O)COc1ccc(Cl)cc1C(=O)c1cc(F)cc(C(F)(F)F)c1
Ans. < 10 nM

Qu. What IC50 value was documented for this compound, Cc1cc(S(N)(=O)=O)ccc1NC(=O)COc1ccc(Cl)cc1C(=O)c1cccc(C#N)c1 ?
Ans. < 10 nM

----------
Tested on: Human immunodeficiency virus 1
experiment-description: Antiviral activity against HIV-1 assessed as reduction in virus-induced cytopathic effect
Assay type: functional, organism-based
pIC50: −log10 of the molar value.
quantity-name: pIC50

>>> result("Cc1cc(S(N)(=O)=O)ccc1NC(=O)COc1ccc(Cl)cc1C(=O)c1cc(F)cc(C(F)(F)F)c1")
"> 8.70"

Qu. Quick check: pIC50 of Cc1cc(S(N)(=O)=O)ccc1NC(=O)COc1ccc(Cl)cc1C(=O)c1cccc(C#N)c1 ?
Ans. > 8.70

Qu. Requested read-out: pIC50. Entry: Cc1cc(OCCCS(N)(=O)=O)ccc1NC(=O)COc1ccc(Cl)cc1C(=O)c1cc(F)cc(C(F)(F)F)c1
Ans. > 8.70

----------
Test system: Human immunodeficiency virus 1
experiment-description: Antiviral activity against HIV-1 harboring V108I/Y181C double mutant
Type: functional, organism-based
quantity-name: IC50

Qu. Can you share its IC50? I mean this compound: Cc1cc(OCCCS(N)(=O)=O)ccc1NC(=O)COc1ccc(Cl)cc1C(=O)c1cc(F)cc(C(F)(F)F)c1
Ans. < 10 nM

Qu. Returns the measured IC50 for the input compound. Input: Cc1cc(S(N)(=O)=O)ccc1NC(=O)COc1ccc(Cl)cc1C(=O)c1cc(F)cc(C(F)(F)F)c1
Ans. < 10 nM

Qu. Entry Cc1cc(S(N)(=O)=O)ccc1NC(=O)COc1ccc(Cl)cc1C(=O)c1cccc(C#N)c1 : reported IC50 = ?
Ans. < 10 nM

----------
experiment-description: Cytotoxicity against human HUVEC cells assessed as inhibition of cell growth
Format: toxicity, cell-based
quantity-name: IC50 (nM)
Number in nM, nothing else.

Qu. Sample CC(C)(C)c1[nH]cnc1/C=c1\[nH]c(=O)/c(=C/c2ccccc2)[nH]c1=O — what was its IC50?
Ans. 10

----------
Tested on: Human immunodeficiency virus 1
experiment-description: Antiviral activity against HIV-1
Assay type: functional, organism-based
Quick reference: EC50 of the listed items.
Form entry: value (nM) — number only.

>>> readout_number("Cc1cccc(C(=O)c2cc(Cl)ccc2OCC(=O)Nc2ccc([N+](=O)[O-])cc2C)c1")
4.2

Now turn to the next compound.
Qu. State the recorded EC50 for this entry: Cc1cc(C)cc(C(=O)c2cc(Cl)ccc2OC(C)C(=O)Nc2ccc(S(N)(=O)=O)cc2)c1 (configuration not stated)
Ans. 2.9
